# test target: Ras (residues 1-166 of human Ha-Ras) (human, UniProt P01112 1-166)
# experimental details: cell-based or functional assay
Non-standard residues stand in square brackets, D forms with d. No end group written: not given here. Aib = CC(C)(N)C(=O)O
// % Inhibition (Sos-mediated nucleotide exchange from Ras, mantGDP) lookup, one value per entry
Could you give me the number in %? Just the number is fine.

>>> measured("FEAIYRLELLKAEEAN [Peptide 13]")
40
>>> measured("FEGIYRTDILRTEEGN [Peptide 1]")
13
>>> measured("FEGIYRTELLKAEEAN [Peptide 6]")
20
>>> measured("FEGIYRLELLK[Aib]EE[Aib]N [Peptide 11]")
30
>>> measured("FEGLLRLWLRK[Aib]EE[Aib]N (staple (positions not given here); not fully specified (C-terminus, bridges); also: hydrogen bond surrogate: N-terminal main-chain i,i+4 H-bond replaced by C-C bond) [HBS 10]")
60
>>> measured("AEGIYRLELLKAEAAA (staple (positions not given here); also: HBS: N-terminal main-chain i,i+4 H-bond replaced by C-C bond (ring-closing metathesis), residues 1-4) [HBS 7^mut]")
15
>>> measured("FEGIYRLELLKAEEAN [Peptide 7]")
37
>>> measured("FEGIYRLEKLKAEEANRR (staple (positions not given here); also: HBS: N-terminal main-chain i,i+4 H-bond replaced by C-C bond (ring-closing metathesis), residues 1-4) [HBS 16]")
56

% Inhibition (Sos-mediated nucleotide exchange from Ras, mantGDP) recorded for this binder, FEGLLRLWLRK[Aib]EEAN (staple (positions not given here); not fully specified (C-terminus, bridges); also: hydrogen bond surrogate: N-terminal main-chain i,i+4 H-bond replaced by C-C bond) [HBS 9] , is 35

% Inhibition (Sos-mediated nucleotide exchange from Ras, mantGDP) recorded for this binder, FEAIYRLELLKAEEAN (staple (positions not given here); also: HBS: N-terminal main-chain i,i+4 H-bond replaced by C-C bond (ring-closing metathesis), residues 1-4) [HBS 13] , is 50

% Inhibition (Sos-mediated nucleotide exchange from Ras, mantGDP) recorded for this binder, FEGLLRLWLRK[Aib]EE[Aib]N [Peptide 10] , is 50

% Inhibition (Sos-mediated nucleotide exchange from Ras, mantGDP) recorded for this binder, FEGIYRLELLK[Aib]EE[Aib]N (staple (positions not given here); not fully specified (C-terminus, bridges); also: hydrogen bond surrogate: N-terminal main-chain i,i+4 H-bond replaced by C-C bond) [HBS 11] , is 20

% Inhibition (Sos-mediated nucleotide exchange from Ras, mantGDP) recorded for this binder, FEGIYRLELLKAEEAN (staple (positions not given here); also: HBS: N-terminal main-chain i,i+4 H-bond replaced by C-C bond (ring-closing metathesis), residues 1-4) [HBS 7] , is 64
